test: self-splicing fitness, log relative to wild type (ln ratio); higher = more splicing; Tetrahymena group I intron in knt gene, E. coli kanamycin selection, DiMSum; sequences stand for … in CUCUCU…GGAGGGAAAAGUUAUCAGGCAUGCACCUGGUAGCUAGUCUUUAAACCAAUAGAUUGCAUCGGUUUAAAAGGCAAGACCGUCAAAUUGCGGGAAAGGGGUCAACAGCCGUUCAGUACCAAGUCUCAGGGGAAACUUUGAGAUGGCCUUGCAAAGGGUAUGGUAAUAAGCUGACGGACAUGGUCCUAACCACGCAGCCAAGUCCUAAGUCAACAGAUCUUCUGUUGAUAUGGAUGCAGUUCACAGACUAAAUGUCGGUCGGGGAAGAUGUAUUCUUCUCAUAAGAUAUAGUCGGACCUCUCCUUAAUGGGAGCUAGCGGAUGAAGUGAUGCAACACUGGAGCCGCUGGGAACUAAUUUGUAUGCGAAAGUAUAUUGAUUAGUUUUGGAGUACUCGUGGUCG; settings: 30 °C;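 further: selection with 25 µg/mL kanamycin versus none on LB agar overnight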
READOUT TYPE: self-splicing fitness (ln)
Lab note: jot the number down without any unit.

# input Which self-splicing fitness (ln) value belongs to UCGGAGCAAUAUUACGAUGU ?
# output -2.81

# input Which self-splicing fitness (ln) value belongs to UGUUAGCAAUAUUACGUUUA ?
# output -1.78
